Assay: chemical genetic growth profiling, strain panel (AID 1159580);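 note: tested at 20 µM; growth read once vehicle control cultures reached saturation at 30 °C; 1 = growth at the plate median or of vehicle wells; lower values mean less growth of the strain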
Conditions: S. cerevisiae deletion strains, growth OD, locus YDR297W, strain sur2, stronger effect = lower value
The campaign covered roughly 5,500 compounds. About 2,000 (36%) were called active. Inconclusive results (about 18%) are left out. The list shows a part of the results.
Listed next: entries and their corresponding normalized growth.

Compound | normalized growth
CC#CC1(O)CCC2C3CCC4=CC(=O)CCC4=C3C(c3ccc(N(C)C)cc3)CC21C (stereo not given) | 0.996
COc1ccc(-c2coc3cc(O)ccc3c2=O)cc1 | 0.978
COC(=O)c1cc(=O)c(O)c2c(O)c(O)ccc2c1 | 0.987
Clc1ccc(C(c2ccc(Cl)cc2)C(Cl)(Cl)Cl)cc1 | 1.01
COC(=O)C1=COC(OC2OC(CO)C(O)C(O)C2O)C2C(C)CC(=O)C12 (stereo not given) | 1.02
CC1(O)CC2C(CC1O)C2(C)C (stereo not given) | 1.01
O=C(Oc1cc(O)cc2c1C[C@@H](OC(=O)c1cc(O)c(O)c(O)c1)[C@@H](c1cc(O)c(O)c(O)c1)O2)c1cc(O)c(O)c(O)c1 | 1.02
CC(=O)O[C@H]1C[C@@H](OC(C)=O)C(C)(C)C2CC(=O)[C@]3(C)C(CC[C@@]4(C)[C@H](C(=O)O)OC(=O)C5OC543)[C@]21C (stereo not given in full) | 0.993
CCCCCCCCCCCCCc1ccco1 | 0.989
Cn1c(=O)c2c(ncn2CC(O)CO)n(C)c1=O (stereo not given) | 0.991
CC(=O)Oc1cc(OC(C)=O)c2c(c1)O[C@H](c1ccc(OC(C)=O)c(OC(C)=O)c1)[C@@H](OC(C)=O)C2 | 1.01
CNCCC(Oc1ccc(C(F)(F)F)cc1)c1ccccc1 (stereo not given) | 0.995
Cc1ccccc1C(OCCN(C)C)c1ccccc1 (stereo not given) | 1.01
Nc1ncn[nH]1 | 1.01
C#CCCCCCCCCCCCc1ccco1 | 1
NS(=O)(=O)c1cc2c(cc1Cl)NC=NS2(=O)=O | 1
C[C@@H]1CC(Cl)CC[C@H]1C(=O)OC(C)(C)C (stereo not given in full) | 0.981
CCCc1cc(C(N)=S)ccn1 | 0.975
COc1ccc(C2CNC(=O)C2)cc1OC1CCCC1 (stereo not given) | 1.01
N=c1ccn2c(n1)OC1C(O)C(CO)OC12 (stereo not given) | 0.986
O=C(O)c1cc2cc(F)ccc2[nH]1 | 0.975
CNC(=O)O/N=C(\C)SC | 1.02
O=C(O)/C=C/c1ccc(O)c(O)c1 | 1.01
COc1ccc(C(=O)CC(=O)O)c2c1C=CC(C)(C)O2 | 0.997
C=C1C2CC[C@@]3(C)[C@H](c4ccoc4)OC(=O)C[C@]13O[C@H]1CC(=O)C(C)(C)[C@H](C(OC(C)=O)C(=O)OC)[C@@]21C (stereo not given in full) | 1.02
COc1cc(CNC(=O)CCCC/C=C/C(C)C)ccc1O | 0.973
CCN(CC)Cc1ccc(Nc2ccnc3cc(Cl)ccc23)cc1O | 1.02
CC(=O)Oc1cc(OC(C)=O)c2c(c1)O[C@H](c1ccc(OC(C)=O)c(OC(C)=O)c1)[C@H](OC(C)=O)C2 | 0.996
CCN(CC)C(=O)N1CCN(C)CC1 | 0.979
COc1ccc(OC)c(C(O)CNC(=O)CN)c1 (stereo not given) | 1

Taken from PubChem BioAssay AID1159580.
